The reported numbers originate from paper PMC10731658.

System: HepG2 cells
PROTOCOL DESCRIPTION: Intracellular RONS detection with DCFH-DA fluorescent probe
Format: cell-based, human
TEST CONDITIONS: 1 h incubation, IC50 concentration
OBSERVED PROPERTY: increase of RONS (DCFH-DA probe) vs negative control

# increase of RONS (DCFH-DA probe) vs negative control lookup, item `NC(=O)c1cc[n+](C/C=C/C[n+]2ccc(C=NO)cc2)cc1.[Br-].[Br-]`
39.2%

Consider next the compound `O/N=C/c1cc[n+](CCCC[n+]2ccc(/C=N/O)cc2)cc1` in the same way.
171%

Request: `NC(=O)c1cc[n+](CCCC[n+]2ccc(C=NO)cc2)cc1.[Br-].[Br-]`
146%

Also CC(C)(C)OO [TBHP, tert-butyl hydroperoxide, reference compound] , if possible.
16.7%
